Known IC50 of a selection of molecules
Target: menin (Homo sapiens, UniProt O00255, T541A)
Construct: Menin (a.a. 1-610-6×his tag)
Experiment: Menin/MLL homogenous time-resolved fluorescence (HTRF) assay
Assay type: binding
Details: location 2; read-out: (2) location 2 Menin HTRF assay (IC50 (nM))
Value and unit, in that order.

- molecule: "FC(F)(F)Cc1cc2c(N3CC4(CCC(Nc5ccccc5)C4)C3)ncnc2s1 (stereo not shown)"
  IC50: "658 nM"
- molecule: "N#CCc1ccc(NC2CCC3(C2)CN(c2ncnc4sc(CC(F)(F)F)cc24)C3)cc1 (racemic)"
  IC50: "22.8 nM"
- molecule: "N#Cc1ccccc1NC1CC2(CCN(c3ncnc4sc(CC(F)(F)F)cc34)C2)C1 (mixture of isomers)"
  IC50: "90 nM"

Value of measured IC50 for the entry FC(F)(F)Cc1cc2c(N3CCC4(CC(Nc5ccc(Cl)cc5)C4)C3)ncnc2s1 (mixture of isomers) : 101 nM

Value of measured IC50 for the entry Fc1ccc(NC2CC3(CCN(c4ncnc5sc(CC(F)(F)F)cc45)C3)C2)cc1 (mixture of isomers) : 72.2 nM

Value of measured IC50 for the entry FC(F)(F)Cc1cc2c(N3CC[C@]4(CC[C@@H](Nc5ccc(-c6cc[nH]n6)cc5)C4)C3)ncnc2s1 (stereo in doubt) : 3.9 nM

Value of measured IC50 for the entry N#CCc1ccc(S(=O)(=O)NC2CCC3(CCN(c4ncnc5sc(CC(F)(F)F)cc45)C3)C2)cc1 (stereo not shown) : 5940 nM

----------
Known log10 of IC50 of a selection of molecules
Target: menin (Homo sapiens, UniProt O00255, T541A)
Construct: Menin (a.a. 1-610-6×his tag)
Sequence (O00255 with tags, fused parts or gaps T541A): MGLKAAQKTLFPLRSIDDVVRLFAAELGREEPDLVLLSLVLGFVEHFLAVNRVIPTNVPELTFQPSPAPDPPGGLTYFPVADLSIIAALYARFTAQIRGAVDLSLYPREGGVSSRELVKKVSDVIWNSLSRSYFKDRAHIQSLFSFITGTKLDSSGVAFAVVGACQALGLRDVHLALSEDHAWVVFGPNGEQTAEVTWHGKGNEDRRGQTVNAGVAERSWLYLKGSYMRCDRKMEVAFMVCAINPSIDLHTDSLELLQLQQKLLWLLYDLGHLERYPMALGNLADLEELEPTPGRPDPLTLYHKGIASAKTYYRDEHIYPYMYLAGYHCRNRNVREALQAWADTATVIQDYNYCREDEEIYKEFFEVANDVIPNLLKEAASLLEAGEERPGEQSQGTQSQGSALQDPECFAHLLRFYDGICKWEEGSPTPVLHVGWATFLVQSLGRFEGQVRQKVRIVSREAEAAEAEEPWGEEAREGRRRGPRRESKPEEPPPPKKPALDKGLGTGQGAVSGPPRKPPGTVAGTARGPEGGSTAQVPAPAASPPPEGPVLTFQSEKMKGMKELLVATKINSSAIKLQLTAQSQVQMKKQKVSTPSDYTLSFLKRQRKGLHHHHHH
Assay: Menin/MLL homogenous time-resolved fluorescence (HTRF) assay
Type: binding
Conditions: location 2; read-out: (2) location 2 Menin HTRF assay (IC50 (nM))
A value of 2 here means IC50 of 100 in nM, since values are log10.

- molecule: "CNC(=O)c1c(F)cc(NC2CC3(CCN(c4ncnc5sc(CC(F)(F)F)cc45)C3)C2)cc1F (single isomer, unassigned) [Compound 245]"
  log10 of IC50: 0.89
- molecule: "CNc1nc(N2CCC3(CC(Nc4ccc5[nH]c(=O)[nH]c5c4)C3)C2)c2cc(CC(F)(F)F)sc2n1 (mixture of isomers) [Compound 393]"
  log10 of IC50: 1.83
- molecule: "O=c1[nH]c2cc(NC3CCC4(C3)CN(c3ncnc5sc(CC(F)(F)F)cc35)C4)ccc2o1 (stereo not drawn) [Compound 285]"
  log10 of IC50: 1.21
- molecule: "CNS(=O)(=O)c1ccc(N[C@H]2CCC3(C2)CN(c2ncnc4sc(CC(F)(F)F)cc24)C3)cc1 (single isomer, unassigned) [Compound 291]"
  log10 of IC50: 1.72

Short answer on menin (Homo sapiens, UniProt O00255, T541A) for O=C(c1ccc(NC2CC3(CCN(c4ncnc5sc(CC(F)(F)F)cc45)C3)C2)cc1)N1CC2(COC2)C1 (single isomer, unassigned) [Compound 413] , log10 of IC50: 3.36

Short answer on menin (Homo sapiens, UniProt O00255, T541A) for N#CC1(c2ccc(NC3CCC4(CCN(c5ncnc6sc(CC(F)(F)F)cc56)C4)C3)cc2)CC1 (stereo not drawn) [Compound 131] , log10 of IC50: 1.69

----------
Molecular target: menin (Homo sapiens, UniProt O00255, T541A)
Construct: Menin (a.a. 1-610-6×his tag)
Test: Menin/MLL homogenous time-resolved fluorescence (HTRF) assay
Format: binding
Settings: location 2; read-out: (2) location 2 Menin HTRF assay (IC50 (nM))
observable: IC50 (nM)
Reply with just the number (in nM).

Example compounds with recorded IC50:
- compound: "O=c1[nH]c2ccc(CNC3CCC4(C3)CN(c3ncnc5sc(CC(F)(F)F)cc35)C4)cc2o1 (stereo not drawn) [Compound 15]"
  target system: "menin (Homo sapiens, UniProt O00255, T541A)"
  units of measure: "nM"
  readout number: 2.2
- compound: "COc1nc(N2CC3(CCC(NCc4ccc5[nH]c(=O)[nH]c5c4)C3)C2)c2cc(CC(F)(F)F)sc2n1 (stereo not drawn)"
  target system: "menin (Homo sapiens, UniProt O00255, T541A)"
  units of measure: "nM"
  readout number: 111
- compound: "O=C(c1cnc(NC2CC3(CCN(c4ncnc5sc(CC(F)(F)F)cc45)C3)C2)nc1)N1CCOCC1 (single isomer, unassigned) [Compound 258]"
  target system: "menin (Homo sapiens, UniProt O00255, T541A)"
  units of measure: "nM"
  readout number: 108

Value of measured IC50 for the entry O=S(=O)(NC1CC2(CCN(c3ncnc4sc(CC(F)(F)F)cc34)C2)C1)c1cccc(C(F)(F)F)c1 (mixture of isomers) : 433

Value of measured IC50 for the entry N#CCc1ccc(NC2CC3(CCN(c4ncnc5sc(CC(F)(F)F)cc45)C3)C2)cc1Cl (single isomer, unassigned) [Compound 211] : 18.2

Value of measured IC50 for the entry N#CCc1ccc(NC2CC3(CCN(c4ncnc5sc(CC(F)(F)F)cc45)C3)C2)cc1Cl (single isomer, unassigned) [Compound 210] : 70.4

----------
Known IC50 of a selection of molecules
Target: menin (Homo sapiens, UniProt O00255, T541A)
Construct: Menin (a.a. 1-610-6×his tag)
Sequence (O00255 with tags, fused parts or gaps T541A): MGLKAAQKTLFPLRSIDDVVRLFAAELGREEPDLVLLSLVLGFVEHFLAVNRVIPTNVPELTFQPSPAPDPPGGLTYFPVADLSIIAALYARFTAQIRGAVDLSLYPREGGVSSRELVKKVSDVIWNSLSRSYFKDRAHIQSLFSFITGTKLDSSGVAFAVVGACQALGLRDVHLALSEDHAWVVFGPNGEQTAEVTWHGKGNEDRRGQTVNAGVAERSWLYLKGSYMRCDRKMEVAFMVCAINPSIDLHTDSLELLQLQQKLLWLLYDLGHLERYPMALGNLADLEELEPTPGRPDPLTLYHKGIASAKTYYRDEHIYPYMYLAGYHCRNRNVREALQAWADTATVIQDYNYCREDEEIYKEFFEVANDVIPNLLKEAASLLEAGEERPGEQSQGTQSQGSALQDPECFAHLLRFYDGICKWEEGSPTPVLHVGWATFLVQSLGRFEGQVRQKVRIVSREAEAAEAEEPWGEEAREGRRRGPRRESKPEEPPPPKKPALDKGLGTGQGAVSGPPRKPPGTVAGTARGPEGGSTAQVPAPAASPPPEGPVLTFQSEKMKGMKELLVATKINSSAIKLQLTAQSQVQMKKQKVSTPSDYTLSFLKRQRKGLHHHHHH
Test: Menin/MLL homogenous time-resolved fluorescence (HTRF) assay
Assay type: binding
Conditions: location 2; read-out: (2) location 2 Menin HTRF assay (IC50 (nM))
Reply with just the number (in nM).

Example molecules with recorded IC50:
- molecule: "FC(F)(F)Cc1cc2c(N3CC4(CC[C@H](Nc5ccc(-c6cn[nH]c6)cc5)C4)C3)ncnc2s1 (single isomer, unassigned)"
  units of measure: "nM"
  IC50: 17.3
- molecule: "N#CCc1ccc(NC2CC3(CCN(c4ncnc5sc(CC(F)(F)F)cc45)C3)C2)c(Cl)c1 (single isomer, unassigned) [Compound 209]"
  units of measure: "nM"
  IC50: 65.3
- molecule: "N#CCc1ccc(NC2CCC3(CCN(c4ncnc5sc(CC(F)(F)F)cc45)C3)C2)cc1F (stereo not shown)"
  units of measure: "nM"
  IC50: 34.3
- molecule: "CNC(=O)c1ccc(NC2CC3(CCN(c4ncnc5sc(CC(F)(F)F)cc45)C3)C2)cn1 (single isomer, unassigned) [Compound 218]"
  units of measure: "nM"
  IC50: 64.9
- molecule: "N#CCc1ccc(N[C@@H]2CC[C@]3(CCN(c4ncnc5sc(CC(F)(F)F)cc45)C3)C2)cc1 (stereo in doubt)"
  units of measure: "nM"
  IC50: 23.7

Value of measured IC50 for the entry N#CCc1cccc(NC2CC3(CCN(c4ncnc5sc(CC(F)(F)F)cc45)C3)C2)c1 (stereo not shown) [Compound 201] : 175

Value of measured IC50 for the entry FC(F)(F)Cc1cc2c(N3CC4(CCC(Nc5ccc6cc[nH]c6c5)C4)C3)ncnc2s1 (stereo not shown) : 423
